# Test system: SK-MEL-5
# measurementNotes: NCI tumour cell line growth inhibition, 48 h
Calls of active or inactive are those of the source. Rule as the data show it: active = GI50 up to about 1.1 µM and inactive = higher.
# GI50 annotations

# molecule, measurementName, result
rows = [
    ("O=C(c1cccc(OCc2ccccc2)c1OCc1ccccc1)N1CCSC1=S", "GI50", "14 µM (inactive)"),
    ("CC1OC2/C=C\\CC(O)C(C)(C)C3CCC(C)C4(O3)O[B-]35OC(C(=O)OC1C2)C1(OC(CCC1C)C(C)(C)C(O)C/C=C\\C1CC(OC(=O)C4O3)C(C)O1)O5 (stereo not drawn)", "GI50", "2.21 µM (inactive)"),
    ("CC(C)(C)C(=O)/C=C/c1ccc(Oc2ccccc2)cc1", "GI50", "16.2 µM (inactive)"),
    ("COc1ccc(-c2cc(-c3cc(F)c(Cl)cc3Cl)on2)cc1OC", "GI50", "9.51 µM (inactive)"),
]

Record summary for COc1cc([C@@H]2c3cc4c(cc3[C@@H](/N=C/c3ccc(C(=O)O[C@H]5C[C@H]6OC[C@@]6(OC(C)=O)[C@H]6[C@H](OC(=O)c7ccccc7)[C@]7(O)C[C@H](OC(=O)[C@H](OC(=O)c8ccc(/C=N/[C@@H]9c%10cc%11c(cc%10[C@@H](c%10cc(OC)c(O)c(OC)c%10)[C@H]%10C(=O)OC[C@@H]%109)OCO%11)cc8)[C@@H](NC(=O)c8ccccc8)c8ccccc8)C(C)=C([C@@H](OC(C)=O)C(=O)[C@]56C)C7(C)C)cc3)C3COC(=O)C32)OCO4)cc(C)c1O (stereo partly drawn) : reported GI50 = 5.28 µM (inactive)

Record summary for [O-][N+]1(CC[N+]2([O-])CCCCC2)CCCCC1 : reported GI50 = > 100 µM (inactive)

Record summary for CCNc1nc2ccccc2nc1NCC : reported GI50 = > 100 µM (inactive)

Record summary for CC1=C(C(=O)NCc2ccccc2)C(c2ccccc2[N+](=O)[O-])C(C(=O)NCc2ccccc2)=C(C)N1 : reported GI50 = 13.1 µM (inactive)
